Numbers sourced from ChEMBL document CHEMBL4184151.

Assignment: determine reported IC50 for the given molecules.
Biological target: Lethal factor (Bacillus anthracis)
Sequence (P15917 whole entry): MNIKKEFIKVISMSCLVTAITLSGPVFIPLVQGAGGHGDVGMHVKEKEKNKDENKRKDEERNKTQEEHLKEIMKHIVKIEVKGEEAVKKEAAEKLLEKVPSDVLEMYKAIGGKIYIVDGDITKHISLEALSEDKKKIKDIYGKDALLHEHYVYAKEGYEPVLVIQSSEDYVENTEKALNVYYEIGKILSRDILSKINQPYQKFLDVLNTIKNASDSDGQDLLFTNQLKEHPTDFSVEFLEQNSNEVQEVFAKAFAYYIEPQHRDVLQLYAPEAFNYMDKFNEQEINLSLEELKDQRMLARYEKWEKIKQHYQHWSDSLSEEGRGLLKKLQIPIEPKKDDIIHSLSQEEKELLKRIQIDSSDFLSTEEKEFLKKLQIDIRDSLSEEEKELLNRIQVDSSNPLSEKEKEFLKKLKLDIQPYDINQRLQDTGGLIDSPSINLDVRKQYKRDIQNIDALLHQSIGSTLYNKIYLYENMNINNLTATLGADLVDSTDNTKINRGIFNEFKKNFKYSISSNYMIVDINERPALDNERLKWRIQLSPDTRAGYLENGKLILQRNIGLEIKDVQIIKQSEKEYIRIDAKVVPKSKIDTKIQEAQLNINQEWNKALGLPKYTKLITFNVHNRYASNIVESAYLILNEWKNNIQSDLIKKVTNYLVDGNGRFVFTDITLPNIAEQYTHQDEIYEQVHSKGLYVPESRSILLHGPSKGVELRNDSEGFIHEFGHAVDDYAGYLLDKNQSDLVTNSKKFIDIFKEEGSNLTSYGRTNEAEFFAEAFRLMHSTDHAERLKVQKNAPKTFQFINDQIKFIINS
Residues, ends and D or L forms follow the SMILES beside them.
// units = nM; emit number, no label

// query Record request: IC50 value, item CC[C@H](C)[C@H](NC(=O)[C@H](CS)NC(=O)[C@H](CCCNC(=N)N)NC(=O)[C@H](CS)NC(=O)[C@@H](NC(=O)CNC(=O)[C@H](Cc1cnc[nH]1)NC(=O)[C@H](CC(C)C)NC(=O)[C@H](CS)NC(=O)[C@H](C)NC(=O)[C@H](CS)NC(=O)[C@H](CCCNC(=N)N)NC(=O)[C@H](CS)NC(=O)[C@H](Cc1ccccc1)NC(=O)CN)C(C)C)C(=O)N[C@@H](CS)C(=O)N[C@H](C(=O)N[C@@H](CCCNC(=N)N)C(=O)O)[C@@H](C)O (H-GFCRCACLHGVCRCICTR-OH)
// result 971

// query Record request: IC50 value, item CC[C@H](C)[C@H](NC(=O)[C@H](CS)NC(=O)[C@H](CC(=O)O)NC(=O)[C@H](CS)NC(=O)[C@H](CO)NC(=O)[C@H](CO)NC(=O)[C@H](CCCNC(=N)N)NC(=O)CNC(=O)[C@H](CS)NC(=O)[C@H](Cc1ccccc1)NC(=O)[C@H](CS)NC(=O)[C@H](CCCNC(=N)N)NC(=O)[C@H](CS)NC(=O)[C@H](Cc1ccccc1)NC(=O)CN)C(=O)N[C@@H](CS)C(=O)N[C@H](C(=O)N[C@@H](CCCNC(=N)N)C(=O)O)[C@@H](C)O (H-GFCRCFCGRSSCDCICTR-OH)
// result 1200

// query Record request: IC50 value, item CC[C@H](C)[C@H](NC(=O)[C@H](CS)NC(=O)[C@H](Cc1c[nH]c2ccccc12)NC(=O)[C@H](CS)NC(=O)CNC(=O)[C@H](Cc1ccc(O)cc1)NC(=O)[C@H](CCCNC(=N)N)NC(=O)[C@H](CO)NC(=O)[C@H](CS)NC(=O)[C@@H]1CCCN1C(=O)[C@H](CS)NC(=O)[C@H](CCCNC(=N)N)NC(=O)[C@H](CS)NC(=O)[C@H](Cc1ccccc1)NC(=O)CN)C(=O)N[C@@H](CS)C(=O)N[C@H](C(=O)N[C@@H](CCCNC(=N)N)C(=O)O)[C@@H](C)O (H-GFCRCPCSRYGCWCICTR-OH)
// result 971

// query Record request: IC50 value, item CC[C@H](C)[C@H](NC(=O)[C@H](CS)NC(=O)[C@H](CCCNC(=N)N)NC(=O)[C@H](CS)NC(=O)[C@@H](NC(=O)CNC(=O)[C@H](CCCNC(=N)N)NC(=O)[C@H](CCCNC(=N)N)NC(=O)[C@H](CS)NC(=O)[C@H](CC(C)C)NC(=O)[C@H](CS)NC(=O)[C@H](CCCNC(=N)N)NC(=O)[C@H](CS)NC(=O)[C@H](Cc1ccccc1)NC(=O)CN)C(C)C)C(=O)N[C@@H](CS)C(=O)N[C@H](C(=O)N[C@@H](CCCNC(=N)N)C(=O)O)[C@@H](C)O (H-GFCRCLCRRGVCRCICTR-OH)
// result 406
